Values compiled from the NIST ThermoML archive (doi:10.1021/acs.jced.5b00838).

- particulars: 288.15 K; 101.33 kPa; Liquid; Vibrating tube method
measured quantity: mass density (kg/m3)
Report as a plain number; the unit kg/m3 is understood.

The cases that follow already have their mass density on record.
INSERT INTO results (compound, measured_quantity, unit_symbol, readout_number) VALUES
  ('CCCCCCCOC [1-methoxyheptane]', 'mass density', 'kg/m3', 783.89),
  ('CCCCCCOCC [1-ethoxyhexane]', 'mass density', 'kg/m3', 775.8),
  ('CCCCOCC(C)C [butyl isobutyl ether]', 'mass density', 'kg/m3', 764.07),
  ('CCCOCCC(C)C [3-methyl-1-propoxybutane]', 'mass density', 'kg/m3', 768.79);

Now look at this one.
Short answer for CCCCCOCCC [1-propoxypentane] : mass density was 773.45

* * *

Catalogue of mass density values
- particulars: 313.15 K; 101.33 kPa; Liquid; Vibrating tube method
Report as a plain number; the unit kg/m3 is understood.

The cases that follow already have their mass density on record.
INSERT INTO measurements (chemical_string, measured_quantity, unit_symbol, readout_number) VALUES
  ('CCCCCOCCC', 'mass density', 'kg/m3', 751.6),
  ('CCCOCCC(C)C', 'mass density', 'kg/m3', 746.78),
  ('CCCCCCOCC', 'mass density', 'kg/m3', 754.06),
  ('CC#N', 'mass density', 'kg/m3', 760.1),
  ('CCCCCCCOC', 'mass density', 'kg/m3', 762.85);

Short answer for CCCCOCC(C)C : mass density was 741.98

* * *

Catalogue of mass density values
- particulars: 293.15 K; 101.33 kPa; Liquid; Vibrating tube method
Report as a plain number; the unit kg/m3 is understood.

The cases that follow already have their mass density on record.
INSERT INTO results (chemical_string, readout_number) VALUES
  ('CCCOCCC(C)C', 764.43),
  ('CCCCCCCOC', 779.71);

Short answer for CCCCOCC(C)C : mass density was 759.72

Short answer for CCCCCOCCC : mass density was 769.12

Short answer for CCCCCCOCC : mass density was 771.47

* * *

- particulars: 308.15 K; 101.33 kPa; Liquid; Vibrating tube method
measured quantity: mass density (kg/m3)
Report as a plain number; the unit kg/m3 is understood.

INSERT INTO assay_data (chemical_string, measured_quantity, unit_symbol, readout_number) VALUES
  ('CCCOCCC(C)C', 'mass density', 'kg/m3', 751.22),
  ('CCCCOCC(C)C', 'mass density', 'kg/m3', 746.45),
  ('CCCCCOCCC', 'mass density', 'kg/m3', 756.01),
  ('CCCCCCOCC', 'mass density', 'kg/m3', 758.45),
  ('CCCCCCCOC', 'mass density', 'kg/m3', 767.09);

Short answer for CC#N : mass density was 765.59

* * *

- particulars: 323.15 K; 101.33 kPa; Liquid; Vibrating tube method
measured quantity: mass density (kg/m3)
Report as a plain number; the unit kg/m3 is understood.

The cases that follow already have their mass density on record.
INSERT INTO measurements (chemical_string, readout_number) VALUES
  ('CCCOCCC(C)C', 737.84),
  ('CCCCOCC(C)C', 732.99),
  ('CCCCCCOCC', 745.27),
  ('CCCCCOCCC', 742.73),
  ('CCCCCCCOC', 754.3);

Now look at this one.
Short answer for CC#N : mass density was 748.99
